- test-method-notes: NCI Yeast Anticancer Drug Screen. Data for the sgs1 mgt1 strain (AID 161);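 further: 0% = growth of cultures given vehicle only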
- measurement-conditions: S. cerevisiae sgs1 mgt1 strain, at 50.0 µM, hits give high values
Compounds without any hit were thinned out: in the full panel of roughly 79,000, 15% have a hit.
Quick reference: growth inhibition of the listed items.
The answer is to be given in %; state only the numeric part.

Take a look at these entries with their results.
>  <compound>
CCC1(C)CC(=O)N(C/C=C(\C)CCC(=O)O)C(=O)C1

>  <number>
-0.45

$$$$
>  <compound>
N#Cc1cnn(-c2ccccc2)c1N

>  <number>
-0.3

$$$$
>  <compound>
O[C@@H]1CC2(Cl)CC1(Cl)C(Cl)=C2Cl (stereo not given in full)

>  <number>
11.7

$$$$
>  <compound>
CCn1c(=O)c2c3ccc(OC(C)=O)cc3[nH]c2c2ccc(OC(C)=O)cc21

>  <number>
-10.9

$$$$
>  <compound>
N#CC(NC(=O)NCCCl)c1ccccc1 (stereo not given)

>  <number>
-1.4

$$$$
>  <compound>
O=c1[nH]cc(CNc2ccccc2)c(=O)[nH]1

>  <number>
-9.45

$$$$
>  <compound>
CCOC(=O)C(OCC1CC=CCC1)Sc1ccccc1 (stereo not given)

>  <number>
-4.95

$$$$
>  <compound>
COC1=C(C(=O)OC(C)(C)C)[C@]2(C)C(C(=O)OC(C)(C)C)C(OC)=C(C(=O)OC(C)(C)C)[C@]2(C)C1C(=O)OC(C)(C)C (stereo not given in full)

>  <number>
22.8

$$$$
>  <compound>
O=S(=O)(O)CCCCBr

>  <number>
16.8

$$$$
>  <compound>
CC1CNC2C(C)C3C(CC4C5CCC6CC(N=Cc7ccccc7O)CCC6(C)C5CCC43C)OC2(O)C1 (stereo not given)

>  <number>
-4.3

$$$$

With those in mind, consider the next compound.
The compound listed as Cc1cccc[n+]1[O-] has a reported growth inhibition of 5.9

---

- test-method-notes: NCI Yeast Anticancer Drug Screen. Data for the mec2-1 strain (AID 157)
- measurement-conditions: S. cerevisiae mec2-1 strain, at 50.0 µM, hits give high values
This is part of a sample that, as a whole, favours compounds with a hit. Of some 79,000 tested, about 15% had one in any assay.
readout-name: growth inhibition (%)
The answer is to be given in %; state only the numeric part.

Take a look at these entries with their results.
>  <molecule>
COC1=CC(=O)C(=O)C=C1C(C)(C)C

>  <growth inhibition (%)>
40.3

$$$$
>  <molecule>
CN(C)n1c(O)c(N=O)sc1=S

>  <growth inhibition (%)>
-6.25

$$$$
>  <molecule>
OC1(C2(O)CCCCC2)CCCCC1

>  <growth inhibition (%)>
13.4

$$$$
>  <molecule>
[N-]=[N+]=Nc1ccnc2cc(C(F)(F)F)ccc12

>  <growth inhibition (%)>
3.35

$$$$
>  <molecule>
CC1(C)[C@H](C(=O)O)CC[C@]1(C)C(=O)O

>  <growth inhibition (%)>
-13.1

$$$$

The molecule listed as O=C(CC12C3C4C1C1C2C3C41CC(=O)NO)NO (configuration not stated) has a reported growth inhibition of -28.1

The molecule listed as CCOC(=O)CCCc1ccccc1 has a reported growth inhibition of -32.5

---

- test-method-notes: NCI Yeast Anticancer Drug Screen. Data for the mlh1 rad18 strain (AID 175)
- measurement-conditions: S. cerevisiae mlh1 rad18 strain growth inhibition; at 50.0 µM; hits give high values
About 79,000 compounds went through this panel and 15% of them were active in at least one assay; those are over-represented in the sample as a whole. Active and inactive are the calls of the source. No stated cut-off is given here; in the data, active means growth inhibition above about 70%; inactive means the rest.
readout-name: growth inhibition

>  <smi>
O=C(c1cccs1)c1cccs1

>  <growth inhibition>
-8.45% (inactive)

$$$$
>  <smi>
O=S(=O)(O)c1cc(O)c2c(N=Nc3c(S(=O)(=O)O)cc4cc(S(=O)(=O)O)cc(N=Nc5c(S(=O)(=O)O)cc6cc(S(=O)(=O)O)cc(O)c6c5O)c4c3O)cc(S(=O)(=O)O)cc2c1

>  <growth inhibition>
8.5% (inactive)

$$$$

The molecule listed as CN1COc2c3c(c4ccccc4c2C1)CN(C)CO3 has a reported growth inhibition of -0.3% (inactive)

The molecule listed as CC(C)CC1OCC(C)(C)CO1 has a reported growth inhibition of -9.8% (inactive)

The molecule listed as Nc1nc2nc(N=Nc3ccccc3)[nH]c2c(=O)[nH]1 has a reported growth inhibition of 8.9% (inactive)

---

- test-method-notes: NCI Yeast Anticancer Drug Screen. Data for the mec2-1 strain (AID 157)
- measurement-conditions: S. cerevisiae mec2-1 strain, at 50.0 µM, hits give high values
- Description: Growth inhibition of yeast strains with defined genetic alterations is measured as a screen for potential anti-cancer activity. Selected strains with alterations in DNA damage repair or cell cycle control were exposed to compounds and growth inhibition was measured relative to vehicle treated controls. The strain used in this assay is mec2-1
This is part of a sample that, as a whole, favours compounds with a hit. Of some 79,000 tested, about 15% had one in any assay.
Quick reference: growth inhibition of the listed items.
The answer is to be given in %; state only the numeric part.

Take a look at these entries with their results.
>  <molecule>
Cc1cc(O)c([N+](=O)[O-])c(C)c1[N+](=O)[O-]

>  <readout-name>
growth inhibition

>  <unit>
%

>  <number>
35.2

$$$$
>  <molecule>
CCNc1nc2ccccc2nc1NCC

>  <readout-name>
growth inhibition

>  <unit>
%

>  <number>
-5.6

$$$$
>  <molecule>
CCCC(C)(C#N)c1ccc(OC)cc1 (configuration not stated)

>  <readout-name>
growth inhibition

>  <unit>
%

>  <number>
13.2

$$$$

The molecule listed as CCO/C=C1/N=C(c2ccccc2Cl)OC1=O has a reported growth inhibition of 5.25

The molecule listed as C/C(=N\NC(=S)N1CCC(C)CC1)c1nccnc1C has a reported growth inhibition of 7.85

The molecule listed as COC(=O)Oc1nn(C(=O)OC)c(=O)c2ccccc12 (tested in a mixture with another compound) has a reported growth inhibition of 3.1

The molecule listed as Cc1cc(C)c2c(-c3ccccc3)cc(=O)[nH]c2c1 has a reported growth inhibition of -16.1

The molecule listed as Cc1cccc(NC(=O)CC(=O)N2N=C(N3c4ccccc4Sc4ccccc43)CC2c2ccccc2)c1 (configuration not stated) has a reported growth inhibition of -5.5

The molecule listed as CCCCN(C=O)c1ccccc1 has a reported growth inhibition of 9.65

The molecule listed as O=C1C(=O)N(CN2CCCCC2)c2ccccc21 has a reported growth inhibition of -40.9

The molecule listed as Cc1ccc(N2C(=O)CSC2=S)cc1F has a reported growth inhibition of 6.55

The molecule listed as c1ccc(N=C(Nc2ccccc2)N2CCCCC2)cc1 has a reported growth inhibition of -50.4

---

Quick reference: growth inhibition of the listed items.
- test-method-notes: NCI Yeast Anticancer Drug Screen. Data for the cln2 rad14 strain (AID 165);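 further: 0% = growth equal to vehicle treated cultures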
- measurement-conditions: S. cerevisiae cln2 rad14 strain, at 50.0 µM, hits give high values
This is part of a sample that, as a whole, favours compounds with a hit. Of some 79,000 tested, about 15% had one in any assay. Where a SMILES comes first, the peptide text is derived from it. [ ]: non-standard residue; d: D form. The star is where a group is joined. ξ: configuration not given here. ξD = NC(CC(=O)O)C(=O)O; Boc = CC(C)(C)OC(=O)*; Aib = CC(C)(N)C(=O)O; OBn = c1ccc(CO*)cc1
The answer is to be given in %; state only the numeric part.

Take a look at these entries with their results.
>  <compound>
CCCCNCCCC

>  <unit>
%

>  <growth inhibition>
-3.65

$$$$
>  <compound>
CCOC(=O)C(=CNc1cc(C(F)(F)F)ccc1N1CCOCC1)C(=O)OCC

>  <unit>
%

>  <growth inhibition>
18.6

$$$$
>  <compound>
CC(C)(C)OC(=O)NC(CC(=O)OCc1ccccc1)C(=O)NC(C)(C)C(N)=O (centres undefined) (Boc-[ξD](OBn)-[Aib]-NH2)

>  <unit>
%

>  <growth inhibition>
26.6

$$$$
>  <compound>
O=C(CNCc1ccccc1)NC(Cc1ccccc1)c1ccccc1 (centres undefined)

>  <unit>
%

>  <growth inhibition>
16.9

$$$$
>  <compound>
CCN(CC)/[N+]([O-])=N/OC

>  <unit>
%

>  <growth inhibition>
13.4

$$$$

The compound listed as CCCCCCCCCC(=O)OCCCC(CCCOC(=O)CCCCCCCCC)OC(=O)CCCCCCCCC has a reported growth inhibition of -23.9

The compound listed as O=C1Cc2c([nH]c3ccccc23)-c2ccccc2N1 has a reported growth inhibition of 5.05

The compound listed as c1ccc2c3nnc(c2c1)SCCSCCCSCCS3 has a reported growth inhibition of -5.25

The compound listed as CN(CCC1(C)C(=O)CCc2ccccc21)Cc1ccccc1 (centres undefined) has a reported growth inhibition of 30.9

The compound listed as O=[N+]([O-])c1ccc(N=C/C=C\Nc2ccc([N+](=O)[O-])cc2)cc1 has a reported growth inhibition of -13.4

The compound listed as CCOC(=O)C1=C(c2ccccc2)OC(N)=C(C#N)C1c1ccccc1 (centres undefined) has a reported growth inhibition of 7.6

The compound listed as O=C1c2ccccc2C(=O)N1CC1(C(=O)O)NCCS1(=O)=O (centres undefined) has a reported growth inhibition of 26.8

The compound listed as Cc1ccc(S(=O)(=O)NNC(=O)c2cc(C(=O)NNS(=O)(=O)c3ccc(C)cc3)c(C)nc2C)cc1 has a reported growth inhibition of 21.8

The compound listed as Cc1onc(-c2ccccc2Cl)c1-c1nc2ccccc2c(=O)o1 has a reported growth inhibition of 93.2

The compound listed as C/C(=N/NC(=O)C(N)=O)C(CC(C(=O)Nc1ccccc1C)/C(C)=N\NC(=O)C(N)=O)C(=O)Nc1ccccc1C (centres undefined) has a reported growth inhibition of -12.2

The compound listed as CC1(C)CCC2(CC1)CC[N+](C)(CCC[N+](C)(C)C)CC2 has a reported growth inhibition of -11.8

The compound listed as CCCS(=O)(=O)CCC(=O)c1cccs1 has a reported growth inhibition of -19
